Test: Liver microsomal stability, human
Format: in vitro ADME
Settings: both sexes, human, liver microsomes, pH 7.4; intrinsic clearance calculated from t1/2; read-out: Human liver microsome CLint′
experimental.endpoint: CLint scaled at 19.8 µM (mL/min/kg)

[[record]]
compound = "COc1ccc(C2=N[C@@H](c3cccc(Cl)c3)[C@@H](c3ccc(Cl)cc3)N2C(=O)N2CCNC(=O)C2)c(OC(C)C)c1 [SJ000558295-1]"
reported_measurement = 12.1

[[record]]
compound = "COc1ccc(C2=NC(c3cccc(C)c3)C(c3ccc(Cl)cc3)N2C(=O)N2CCNC(=O)C2)c(OC(C)C)c1 (centres unmarked) [SJ000558304-1]"
reported_measurement = 14.2

